Where do the numbers come from? From ChEMBL document CHEMBL4024803.

Each entry below carries its recorded chromatographic logD.
- protocol_description: Distribution co-efficient, log D of the compound at pH 1 by reversed-phase thin-layer chromatographic method
- Assay type: physicochemical
- measurement_context: buffer
Keep the answer to the number alone.

CC(=O)O[C@H]1C[C@H]2[C@@H]([C@H](OC(C)=O)C[C@@H]3C[C@H](N)CC[C@@]32C)[C@@H]2CC[C@H]([C@H](C)CCCNCCCC(C)Nc3ccnc4ccccc34)[C@@]12C (mixture of isomers) : 2.28
N#Cc1ccc(-c2ccc(-c3ccc(CNCCCCNc4ccnc5ccccc45)cc3)s2)cc1 : 2.93
CC(=O)O[C@H]1C[C@H]2[C@@H]([C@H](OC(C)=O)C[C@@H]3C[C@H](N)CC[C@@]32C)[C@@H]2CC[C@H]([C@H](C)CCCNCCCCNc3ccnc4ccccc34)[C@@]12C : 2.14
N#Cc1ccc(-c2ccc(-c3ccc(CNCCCCCCCCNc4ccnc5ccccc45)cc3)s2)cc1 : 3.42
CC(=O)O[C@H]1C[C@H]2[C@@H]([C@H](OC(C)=O)C[C@@H]3C[C@H](N)CC[C@@]32C)[C@@H]2CC[C@H]([C@H](C)CCCN(C)CCCCNc3ccnc4ccccc34)[C@@]12C : 2.11

# evaluate next
*Q* Endpoint output: chromatographic logD of "CC(=O)O[C@H]1C[C@H]2[C@@H]([C@H](OC(C)=O)C[C@@H]3C[C@H](N)CC[C@@]32C)[C@@H]2CC[C@H]([C@H](C)CCCNCCCCNc3ccnc4cc(Cl)ccc34)[C@@]12C" . Value?
*A* 2.55

* * *

- target_or_test_system: Botulinum neurotoxin type A (Clostridium botulinum)
- protocol_description: Inhibition of Clostridium botulinum BoNT/A light chain at 20 uM using P39 as substrate preincubated for 10 mins followed by substrate addition measured after 10 mins by HPLC method relative to control
parameter_measured: inhibition (%)
Form entry: value (%) — number only.

*Q* Endpoint output: inhibition of CC(CCNCCC12CC3CC(CC(C3)C1)C2)Nc1ccnc2cc(Cl)ccc12 (centres undefined) . Value?
*A* 64

*Q* Endpoint output: inhibition of "CN(CCCCCCCCNc1ccnc2ccccc12)Cc1ccc(-c2ccc(-c3ccc(C#N)cc3)s2)cc1" . Value?
*A* 35

*Q* Endpoint output: inhibition of "N#Cc1ccc(-c2ccc(-c3ccc(CNCCCCNc4ccnc5ccccc45)cc3)s2)cc1" . Value?
*A* 67

*Q* Endpoint output: inhibition of "CC(=O)O[C@H]1C[C@H]2[C@@H]([C@H](OC(C)=O)C[C@@H]3C[C@H](N)CC[C@@]32C)[C@@H]2CC[C@H]([C@H](C)CCCNCCCCNc3ccnc4cc(Cl)ccc34)[C@@]12C" . Value?
*A* 66

*Q* Endpoint output: inhibition of "CC(=O)O[C@H]1C[C@H]2[C@@H]([C@H](OC(C)=O)C[C@@H]3C[C@H](N)CC[C@@]32C)[C@@H]2CC[C@H]([C@H](C)CCCN(C)CCCCNc3ccnc4ccccc34)[C@@]12C" . Value?
*A* 52

*Q* Endpoint output: inhibition of "CC(=O)O[C@H]1C[C@H]2[C@@H]([C@H](OC(C)=O)C[C@@H]3C[C@H](NCCCCCCNc4ccnc5cc(Cl)ccc45)CC[C@@]32C)[C@@H]2CC[C@H]([C@H](C)CCCNCCCCCCNc3ccnc4cc(Cl)ccc34)[C@@]12C" . Value?
*A* 90
